Biological target: UniProt:P42685
Sequence (P42685 whole entry): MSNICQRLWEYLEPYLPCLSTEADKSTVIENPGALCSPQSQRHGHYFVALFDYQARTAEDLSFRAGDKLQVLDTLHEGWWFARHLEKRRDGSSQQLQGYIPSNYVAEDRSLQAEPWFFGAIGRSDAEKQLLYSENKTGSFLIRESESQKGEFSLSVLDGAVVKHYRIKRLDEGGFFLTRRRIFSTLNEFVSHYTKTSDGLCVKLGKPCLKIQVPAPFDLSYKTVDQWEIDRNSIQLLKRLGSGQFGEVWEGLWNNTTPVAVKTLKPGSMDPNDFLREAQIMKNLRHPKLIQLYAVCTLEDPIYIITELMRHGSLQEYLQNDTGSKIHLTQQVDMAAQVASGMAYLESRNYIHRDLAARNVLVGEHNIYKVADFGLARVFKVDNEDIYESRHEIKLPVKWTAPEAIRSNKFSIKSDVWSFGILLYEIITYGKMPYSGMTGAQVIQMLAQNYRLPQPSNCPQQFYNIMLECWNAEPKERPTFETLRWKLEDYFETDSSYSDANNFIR
Assay: Inhibition of recombinant human GST-tagged full length FRK expressed in baculovirus expression system at 500 nM using Tyr 01 peptide as substrate incubated for 1 hr in presence of ATP at its Km concentration by Z'-LYTE assay relative to control
assay.readout: inhibition (%)

sample_smiles=CN(C)CCNCc1ccc(-c2cc3c(N[C@H](CO)c4ccccc4)ncnc3[nH]2)cc1F tgt=UniProt:P42685 numeric_readout=49
sample_smiles=OC[C@@H](Nc1ncnc2[nH]c(-c3ccccc3)cc12)c1ccccc1 tgt=UniProt:P42685 numeric_readout=33
sample_smiles=OCC[C@@H](Nc1ncnc2[nH]c(-c3ccccc3)cc12)c1ccccc1 tgt=UniProt:P42685 numeric_readout=14
sample_smiles=COc1ccccc1-c1cc2c(N[C@H](CO)c3ccccc3)ncnc2[nH]1 tgt=UniProt:P42685 numeric_readout=36

(I) C#Cc1cccc(Nc2ncnc3cc(OCCOC)c(OCCOC)cc23)c1
(II) CCOc1ccccc1-c1cc2c(N[C@H](CO)c3ccccc3)ncnc2[nH]1
Challenge: Look at I and II . Which one has the lower recorded inhibition number? Answer with the label corresponding to your selection.
Response given: I
(I: 16%, II: 32%)

----------
Target: Aurora kinase B (Homo sapiens) (UniProt Q96GD4)
Sequence (Q96GD4 whole entry): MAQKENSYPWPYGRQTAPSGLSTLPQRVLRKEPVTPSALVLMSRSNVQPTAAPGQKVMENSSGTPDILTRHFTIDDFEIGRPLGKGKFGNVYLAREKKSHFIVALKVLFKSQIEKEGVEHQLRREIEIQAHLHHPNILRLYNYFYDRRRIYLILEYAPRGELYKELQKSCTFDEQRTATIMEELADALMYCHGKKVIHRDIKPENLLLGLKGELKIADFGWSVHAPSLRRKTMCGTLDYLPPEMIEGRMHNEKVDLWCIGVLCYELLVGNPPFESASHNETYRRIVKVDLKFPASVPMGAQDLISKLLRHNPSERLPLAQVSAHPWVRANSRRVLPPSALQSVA
Test: Inhibition of recombinant full length His-tagged human AURKB expressed in baculovirus expression system at 500 nM using Ser/Thr 01 as substrate incubated for 1 hr in presence of ATP at its Km concentration by Z'-LYTE assay relative to control
assay.readout: inhibition (%)

Use these answered entries as a reference point.
sample_smiles=OC[C@@H](Nc1ncnc2[nH]c(-c3ccccc3)cc12)c1ccccc1 numeric_readout=13
sample_smiles=OCC[C@@H](Nc1ncnc2[nH]c(-c3ccccc3)cc12)c1ccccc1 numeric_readout=7

(A) CN(C)CCNCc1ccc(-c2cc3c(N[C@H](CO)c4ccccc4)ncnc3[nH]2)cc1F
(B) COc1ccccc1-c1cc2c(N[C@H](CO)c3ccccc3)ncnc2[nH]1
(C) CCOc1ccccc1-c1cc2c(N[C@H](CO)c3ccccc3)ncnc2[nH]1
Challenge: Endpoint returns the given compounds ordered by ascending inhibition. In plain terms: list the labels in the order you were asked to.
Response given: C, B, A

----------
Assay: Metabolic stability in pooled human liver microsomes assessed as Clearance at 3 uM measured up to 45 mins in presence of NADPH by LC-MS/MS analysis
Assay type: ADME, Microsome
Details: pooled liver microsomes, read-out: CLH
assay.readout: microsomal CLint at 3 µM (µL/min/mg)

sample_smiles=C#Cc1cccc(Nc2ncnc3cc(OCCOC)c(OCCOC)cc23)c1 numeric_readout=43.8
sample_smiles=COc1cc(CO)ccc1-c1cc2c(N[C@H](CO)c3ccccc3)ncnc2[nH]1 numeric_readout=12.6

(P) CS(=O)(=O)Nc1ccc(-c2cc3c(N[C@H](CO)c4ccccc4)ncnc3[nH]2)cc1
(Q) OCc1ccc(-c2cc3c(N[C@H](CO)c4ccccc4)ncnc3[nH]2)cc1
(R) C[C@@H](Nc1ncnc2[nH]c(-c3ccc(NS(C)(=O)=O)cc3)cc12)c1ccccc1
(S) C[C@@H](Nc1ncnc2[nH]c(-c3ccccc3OC(F)F)cc12)c1ccccc1
Challenge: Rank descending by microsomal CLint at 3 µM. In plain terms: list the labels in the order you were asked to.
Response given: S, R, P, Q

----------
Biological target: Platelet-derived growth factor receptor beta (Homo sapiens) (UniProt P09619)
Sequence (P09619 whole entry, the tested form may be a part): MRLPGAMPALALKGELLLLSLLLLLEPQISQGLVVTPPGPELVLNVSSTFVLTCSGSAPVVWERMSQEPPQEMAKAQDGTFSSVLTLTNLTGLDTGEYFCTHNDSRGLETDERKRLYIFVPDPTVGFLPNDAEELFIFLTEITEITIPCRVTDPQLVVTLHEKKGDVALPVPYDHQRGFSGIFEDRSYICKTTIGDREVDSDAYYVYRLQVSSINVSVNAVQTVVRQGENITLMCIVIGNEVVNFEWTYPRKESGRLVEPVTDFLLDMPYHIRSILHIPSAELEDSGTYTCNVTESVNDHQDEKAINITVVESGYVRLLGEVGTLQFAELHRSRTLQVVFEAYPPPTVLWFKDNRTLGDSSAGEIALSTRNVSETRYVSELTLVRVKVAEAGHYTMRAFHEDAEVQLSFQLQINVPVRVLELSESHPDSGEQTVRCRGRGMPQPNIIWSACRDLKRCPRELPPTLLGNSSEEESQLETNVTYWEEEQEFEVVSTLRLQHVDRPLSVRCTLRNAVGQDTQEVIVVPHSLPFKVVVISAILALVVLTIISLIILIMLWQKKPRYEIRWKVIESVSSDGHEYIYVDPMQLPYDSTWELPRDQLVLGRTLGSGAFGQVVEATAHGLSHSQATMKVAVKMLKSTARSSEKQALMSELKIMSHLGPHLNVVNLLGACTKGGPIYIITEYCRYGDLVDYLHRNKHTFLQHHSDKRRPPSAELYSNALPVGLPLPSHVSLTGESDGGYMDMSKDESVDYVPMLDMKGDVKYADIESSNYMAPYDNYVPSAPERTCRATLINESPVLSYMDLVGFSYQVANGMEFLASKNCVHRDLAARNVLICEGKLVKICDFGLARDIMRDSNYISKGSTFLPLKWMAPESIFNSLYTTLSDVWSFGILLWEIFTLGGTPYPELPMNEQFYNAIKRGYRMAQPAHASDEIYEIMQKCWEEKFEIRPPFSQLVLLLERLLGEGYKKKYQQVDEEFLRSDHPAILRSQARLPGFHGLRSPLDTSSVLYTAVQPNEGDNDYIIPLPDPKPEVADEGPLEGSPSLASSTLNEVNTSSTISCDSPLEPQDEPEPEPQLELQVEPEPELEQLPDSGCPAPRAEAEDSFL
Test: Inhibition of recombinant human His-tagged PDGFRbeta cytoplasmic domain expressed in baculovirus expression system at 500 nM using Tyr 04 as substrate incubated for 1 hr in presence of ATP at its Km concentration by Z'-LYTE assay relative to control
assay.readout: inhibition (%)

(P) OCC[C@@H](Nc1ncnc2[nH]c(-c3ccccc3)cc12)c1ccccc1
(Q) OC[C@@H](Nc1ncnc2[nH]c(-c3ccccc3)cc12)c1ccccc1
Challenge: Determine, for P and Q , which has the greater value of inhibition. Answer with the label corresponding to your selection.
Response given: P

(I) C#Cc1cccc(Nc2ncnc3cc(OCCOC)c(OCCOC)cc23)c1
(II) CN(C)CCNCc1ccc(-c2cc3c(N[C@H](CO)c4ccccc4)ncnc3[nH]2)cc1F
(III) COc1ccccc1-c1cc2c(N[C@H](CO)c3ccccc3)ncnc2[nH]1
Challenge: Endpoint returns the given compounds ordered by ascending inhibition. In plain terms: list the labels in the order you were asked to.
Response given: I, III, II
(I: -5%, III: 0%, II: 10%)
